Catalogue of molecules with associated Intestinal:Body Wt. Ratio, 8-bromo cyclic GMP-induced
# Tested on: 8-bromo cyclic GMP-induced intestinal fluid secretion; note: test concentration or dose not given here
# Design: species or system suckling mice
# RECORDED CONDITIONS: mouse, in vivo
VALUE KIND: Intestinal:Body Wt. Ratio, 8-bromo cyclic GMP-induced

INSERT INTO assay_data (line_notation, target, observed_measurement) VALUES
  ('N[C@@H](CS)C(=O)O', '8-bromo cyclic GMP-induced intestinal fluid secretion', 0.1097),
  ('N[C@H](CS)C(=O)O', '8-bromo cyclic GMP-induced intestinal fluid secretion', 0.1191),
  ('N[C@@H](CCSC[C@H](N)C(=O)O)C(=O)O', '8-bromo cyclic GMP-induced intestinal fluid secretion', 0.1043),
  ('NCCSSCCN', '8-bromo cyclic GMP-induced intestinal fluid secretion', 0.1188),
  ('CC(=O)N[C@@H](CS)C(=O)O', '8-bromo cyclic GMP-induced intestinal fluid secretion', 0.1028),
  ('N[C@@H](CSSC[C@H](N)C(=O)O)C(=O)O', '8-bromo cyclic GMP-induced intestinal fluid secretion', 0.1191),
  ('N[C@H](CSSC[C@@H](N)C(=O)O)C(=O)O', '8-bromo cyclic GMP-induced intestinal fluid secretion', 0.1048),
  ('NCCS', '8-bromo cyclic GMP-induced intestinal fluid secretion', 0.1106);
